Data origin, for the record: the Human Domainome abundance scans (Beltran et al. 2025)

B1: Homeobox protein cut-like 2, residues 895 to 963; numbered along this chain, O14529 (parent)
chain: EVDTLELTRQVKEKLAKNGICQRIFGEKVLGLSQGSVSDMLSRPKPWSKLTQKGREPFIRMQLWLSDQL

variants of: B1; assay: abundance fitness (aPCA) (normalised: wild type 0, dead -1); higher = more abundant; growth selection in yeast, the domain comes from the species named; settings: Homo sapiens
Parameter threshold = -0.2. Response is 1 when abundance fitness meets or exceeds it, else -1.

Reported abundance fitness at or above -0.2? K14S
1

Another: E13I
1

Another: G35C
-1

Another: I24D
1

Another: I24P
-1

Another: Q68G
1
